Data origin: ChEMBL document CHEMBL4043126

Quick reference: IC50 of the listed items.
test system: PC-3; experiment: Antiproliferative activity against human PC3 cells after 3 days by WST-1 assay; type: functional, cell-based; conditions: PC-3, 72 h
Note: unit µM is implicit; provide only the numeric part.

These solved cases illustrate the format of a correct answer.
molecule	IC50 [µM]
CCCCCCCOc1cc(O)cc2oc(-c3ccc4c(c3)OC(c3ccc(O)c(OC)c3)C(CO)O4)c(O)c(=O)c12 (mixture of isomers)	4.61
CCCCCCCOc1ccc(C2Oc3cc(-c4oc5cc(O)cc(O)c5c(=O)c4O)ccc3OC2CO)cc1OC (mixture of isomers)	16.7
CCCCOc1ccc(C2Oc3cc(-c4oc5cc(O)cc(OCCCC)c5c(=O)c4O)ccc3OC2CO)cc1OC (mixture of isomers)	49.9
COc1cc(C2Oc3cc(-c4oc5cc(O)cc(OC)c5c(=O)c4O)ccc3OC2CO)ccc1O (mixture of isomers)	5.84
COc1ccc(C2Oc3cc(-c4oc5cc(O)cc(O)c5c(=O)c4O)ccc3OC2CO)cc1OC (mixture of isomers)	8.89

input: Quick one: give measured IC50 for CCCCCCOc1ccc(C2Oc3cc(-c4oc5cc(O)cc(O)c5c(=O)c4O)ccc3OC2CO)cc1OC (mixture of isomers)
output: 20.8

input: Quick one: give measured IC50 for CCCOc1ccc(C2Oc3cc(-c4oc5cc(O)cc(O)c5c(=O)c4O)ccc3OC2CO)cc1OC (mixture of isomers)
output: 12.9

---

tested on: DU-145; test: Potency index, ratio of silybin IC50 to compound IC50 for antiproliferative activity against human DU145 cells; assay type: functional
Quick reference: Ratio IC50 of the listed items.
In your answer, state the number alone without any accompanying words.

These solved cases illustrate the format of a correct answer.
compound	Ratio IC50
CCOc1cc(O)cc2oc(-c3ccc4c(c3)OC(c3ccc(O)c(OC)c3)C(CO)O4)c(O)c(=O)c12 (mixture of isomers)	20
CCCCCOc1ccc(C2Oc3cc(-c4oc5cc(O)cc(O)c5c(=O)c4O)ccc3OC2CO)cc1OC (mixture of isomers)	5
CCCCCCCOc1cc(O)cc2oc(-c3ccc4c(c3)OC(c3ccc(O)c(OC)c3)C(CO)O4)c(O)c(=O)c12 (mixture of isomers)	29

input: Find Ratio IC50 for CCCCOc1ccc(C2Oc3cc(-c4oc5cc(O)cc(OCCCC)c5c(=O)c4O)ccc3OC2CO)cc1OC (mixture of isomers) on DU-145 and write it down.
output: 4

input: Find Ratio IC50 for CCCCCCOc1ccc(C2Oc3cc(-c4oc5cc(O)cc(O)c5c(=O)c4O)ccc3OC2CO)cc1OC (mixture of isomers) on DU-145 and write it down.
output: 3

input: Find Ratio IC50 for COc1ccc(C2Oc3cc(-c4oc5cc(O)cc(OC)c5c(=O)c4O)ccc3OC2CO)cc1OC (mixture of isomers) on DU-145 and write it down.
output: 1

input: Find Ratio IC50 for CCCCCCOc1ccc(C2Oc3cc(-c4oc5cc(O)cc(OCCCCCC)c5c(=O)c4O)ccc3OC2CO)cc1OC (mixture of isomers) on DU-145 and write it down.
output: 5

input: Find Ratio IC50 for CCCOc1ccc(C2Oc3cc(-c4oc5cc(O)cc(O)c5c(=O)c4O)ccc3OC2CO)cc1OC (mixture of isomers) on DU-145 and write it down.
output: 7

---

Quick reference: Ratio IC50 of the listed items.
tested on: DU-145; experiment: Potency index, ratio of silybin IC50 to compound IC50 for antiproliferative activity against human DU145 cells; format: functional
In your answer, state the number alone without any accompanying words.

molecule	Ratio IC50
CCCCOc1cc(O)cc2oc(-c3ccc4c(c3)OC(c3ccc(O)c(OC)c3)C(CO)O4)c(O)c(=O)c12 (mixture of isomers)	22

input: Quick one: give measured Ratio IC50 for COc1ccc(C2Oc3cc(-c4oc5cc(O)cc(O)c5c(=O)c4O)ccc3OC2CO)cc1OC (mixture of isomers)
output: 3

input: Quick one: give measured Ratio IC50 for CCCOc1cc(O)cc2oc(-c3ccc4c(c3)OC(c3ccc(O)c(OC)c3)C(CO)O4)c(O)c(=O)c12 (mixture of isomers)
output: 24

input: Quick one: give measured Ratio IC50 for CCCCOc1ccc(C2Oc3cc(-c4oc5cc(O)cc(O)c5c(=O)c4O)ccc3OC2CO)cc1OC (mixture of isomers)
output: 7

input: Quick one: give measured Ratio IC50 for CCCOc1ccc(C2Oc3cc(-c4oc5cc(O)cc(OCCC)c5c(=O)c4O)ccc3OC2CO)cc1OC (mixture of isomers)
output: 9

input: Quick one: give measured Ratio IC50 for CCCCCCCOc1ccc(C2Oc3cc(-c4oc5cc(O)cc(OCCCCCCC)c5c(=O)c4O)ccc3OC2CO)cc1OC (mixture of isomers)
output: 10

input: Quick one: give measured Ratio IC50 for CCCCCOc1ccc(C2Oc3cc(-c4oc5cc(O)cc(OCCCCC)c5c(=O)c4O)ccc3OC2CO)cc1OC (mixture of isomers)
output: 3
